Entry source: patent US20240246950A1

test-system: GSK3β (Homo sapiens, UniProt P49841)
Sequence (P49841 whole entry, species assumed): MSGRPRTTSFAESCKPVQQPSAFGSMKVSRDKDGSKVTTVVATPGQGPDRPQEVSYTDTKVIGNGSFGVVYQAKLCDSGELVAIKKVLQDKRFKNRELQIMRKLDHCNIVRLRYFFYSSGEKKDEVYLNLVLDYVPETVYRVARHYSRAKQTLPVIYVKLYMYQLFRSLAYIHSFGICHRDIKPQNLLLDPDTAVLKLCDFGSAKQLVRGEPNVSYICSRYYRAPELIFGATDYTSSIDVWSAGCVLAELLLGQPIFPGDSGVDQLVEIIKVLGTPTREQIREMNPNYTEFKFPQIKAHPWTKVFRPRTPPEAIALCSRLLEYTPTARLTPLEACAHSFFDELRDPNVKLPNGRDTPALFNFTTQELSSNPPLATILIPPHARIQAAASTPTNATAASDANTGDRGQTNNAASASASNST
assay-remarks: In vitro kinase TR-FRET assay GSK3β
Assay type: biochemical
setup-conditions: enzyme 0.6 nM, ATP 7.6 μM
measured-quantity: IC50

Ask: Returns the measured IC50 for the input molecule. Input: CC(C)NC(=O)O[C@@H]1CC[C@H](c2cc(Nc3ccc4c(c3)C(C)NS4(=O)=O)[nH]n2)C1 (stereo partly drawn) [Example 10]
Result: 0.05 to 0.5 µM

Ask: Returns the measured IC50 for the input molecule. Input: CC(C)NC(=O)O[C@@H]1CC[C@H](c2cc(Nc3ccc4c(c3)NS(=O)(=O)C4)n[nH]2)C1 [Example 38]
Result: > 1 µM

Ask: Returns the measured IC50 for the input molecule. Input: CC(C)NC(=O)O[C@@H]1CC[C@H](c2cc(Nc3ccc4c(c3)CS(=O)(=O)N4)n[nH]2)C1 [Example 45]
Result: > 1 µM

Ask: Returns the measured IC50 for the input molecule. Input: CC(C)NC(=O)O[C@H]1CC[C@@H](c2cc(Nc3cccc4c3CCS4(=O)=O)n[nH]2)CC1 [Example 49]
Result: > 1 µM

Ask: Returns the measured IC50 for the input molecule. Input: CC(C)NC(=O)O[C@@H]1CC[C@H](c2cc(Nc3ccc4c(c3)CS(=O)(=O)C4)n[nH]2)C1 [Example 22]
Result: 0.5 to 1 µM

Ask: Returns the measured IC50 for the input molecule. Input: O=C(NC1CC1)O[C@@H]1CC[C@H](c2cc(Nc3nccc4c3CCS4(=O)=O)n[nH]2)C1 [Example 71]
Result: 0.05 to 0.5 µM

Ask: Returns the measured IC50 for the input molecule. Input: CC(C)NC(=O)O[C@H]1CC[C@@H](c2cc(Nc3ccc4c(c3)CCNS4(=O)=O)n[nH]2)CC1 [Example 11]
Result: > 1 µM

Ask: Returns the measured IC50 for the input molecule. Input: CC(C)NC(=O)O[C@@H]1CC[C@H](c2cc(Nc3cccc4c3CS(=O)(=O)CC4O)[nH]n2)C1 (stereo partly drawn) [Example 62]
Result: > 1 µM

Ask: Returns the measured IC50 for the input molecule. Input: CC(C)NC(=O)O[C@@H]1CC[C@H](c2cc(Nc3ccc4c(c3)C(=O)NS4(=O)=O)[nH]n2)C1 [Example 5]
Result: 0.5 to 1 µM

Ask: Returns the measured IC50 for the input molecule. Input: CC(C)NC(=O)O[C@@H]1CC[C@H](c2cc(Nc3ccc4c(c3)CCC(=O)N4)[nH]n2)C1 [Example 30]
Result: > 1 µM

Ask: Returns the measured IC50 for the input molecule. Input: CC(C)NC(=O)O[C@H]1CC[C@@H](c2cc(Nc3ccc4c(c3)CNS4(=O)=O)n[nH]2)CC1 [Example 7]
Result: > 1 µM

Ask: Returns the measured IC50 for the input molecule. Input: CC(C)NC(=O)OC1CCC(c2cc(Nc3ccc4c(c3)CN(C)S4(=O)=O)[nH]n2)C1 (racemic) [Example 23]
Result: 0.05 to 0.5 µM

Ask: Returns the measured IC50 for the input molecule. Input: CC(C)NC(=O)O[C@@H]1CC[C@H](c2cc(Nc3ccc4c(c3)OCCNS4(=O)=O)n[nH]2)C1 [Example 6]
Result: 0.05 to 0.5 µM

Ask: Returns the measured IC50 for the input molecule. Input: CC(C)NC(=O)O[C@@H]1CC[C@H](c2cc(Nc3cccc4c3N(C)S(=O)(=O)C4)n[nH]2)C1 [Example 51]
Result: > 1 µM

Ask: Returns the measured IC50 for the input molecule. Input: CC(C)NC(=O)O[C@@H]1CC[C@H](c2cc(Nc3cccc4c3CCCS4(=O)=O)n[nH]2)C1 [Example 59]
Result: 0.5 to 1 µM

====

test-system: GSK3β (Homo sapiens, UniProt P49841)
assay-remarks: In vitro kinase TR-FRET assay GSK3β
Format: biochemical
setup-conditions: enzyme 0.6 nM, ATP 7.6 μM
Provide the recorded IC50 for the entries that follow.

Ask: Returns the measured IC50 for the input compound. Input: CC(C)NC(=O)O[C@H]1CC[C@@H](c2cc(Nc3ccc4c(c3)S(=O)(=O)NC4)n[nH]2)CC1
Result: > 1000 nM

Ask: Returns the measured IC50 for the input compound. Input: CC(C)NC(=O)O[C@@H]1CC[C@H](c2cc(Nc3ccc4c(c3)C(C)(C)NS4(=O)=O)n[nH]2)C1
Result: 50 to 500 nM

Ask: Returns the measured IC50 for the input compound. Input: CC(C)NC(=O)O[C@@H]1CC[C@H](c2cc(Nc3ccc4c(c3)N(C)C(=O)NS4(=O)=O)n[nH]2)C1
Result: 50 to 500 nM

Ask: Returns the measured IC50 for the input compound. Input: CC(C)NC(=O)O[C@@H]1CC[C@H](c2cc(Nc3cccc4c3CS(=O)(=O)N4)n[nH]2)C1
Result: > 1000 nM

Ask: Returns the measured IC50 for the input compound. Input: CC(C)NC(=O)O[C@@H]1CC[C@H](c2cc(Nc3cc4c(cn3)CCS4(=O)=O)n[nH]2)C1
Result: > 1000 nM

Ask: Returns the measured IC50 for the input compound. Input: CC(C)NC(=O)O[C@@H]1CC[C@H](c2cc(Nc3c(F)ccc4c3CCS4(=O)=O)n[nH]2)C1
Result: > 1000 nM

Ask: Returns the measured IC50 for the input compound. Input: CC(C)NC(=O)O[C@@H]1CC[C@H](c2cc(Nc3cccc4c3CS(=O)(=O)C4)n[nH]2)C1
Result: > 1000 nM

====

Provide the recorded pIC50 for the entries that follow.
test-system: GSK3β (Homo sapiens, UniProt P49841)
assay-remarks: In vitro kinase Caliper assay GSK3β
Assay type: biochemical
setup-conditions: enzyme 1 nM, 28° C. 30 min
pIC50: −log10 of the molar value.

Ask: Returns the measured pIC50 for the input compound. Input: CC(C)NC(=O)O[C@@H]1CC[C@H](c2cc(Nc3ccc4c(c3)CCNS4(=O)=O)n[nH]2)C1
Result: 6.00 to 6.30

Ask: Returns the measured pIC50 for the input compound. Input: CC(C)NC(=O)O[C@@H]1CC[C@H](c2cc(Nc3ccc4c(c3)CNS4(=O)=O)n[nH]2)C1
Result: 6.00 to 6.30

Ask: Returns the measured pIC50 for the input compound. Input: CC(C)NC(=O)O[C@@H]1CC[C@H](c2cc(Nc3ccc4c(=O)[nH]n(C)c4c3)n[nH]2)C1
Result: 6.30 to 7.30

====

test-system: CDK2/CycA2 (Homo sapiens, UniProt P24941)
assay-remarks: In vitro kinase TR-FRET assay CDK2/CycA2
Assay type: biochemical
setup-conditions: enzyme 3 nM, ATP 27 μM, read-out: CDK2 cyclinA2 activity assay: IC50
pIC50: −log10 of the molar value.
Provide the recorded pIC50 for the entries that follow.

Ask: Returns the measured pIC50 for the input molecule. Input: CC(C)NC(=O)OC1CCC(c2cc(Nc3ccc4c(c3)CN(C)S4(=O)=O)[nH]n2)C1 (racemic)
Result: > 7.30

Ask: Returns the measured pIC50 for the input molecule. Input: CC(C)NC(=O)O[C@@H]1CC[C@H](c2cc(Nc3ccc(F)c4c3CNS4(=O)=O)[nH]n2)C1
Result: > 7.30

Ask: Returns the measured pIC50 for the input molecule. Input: CC(C)NC(=O)O[C@@H]1CC[C@H](c2cc(Nc3ccc4c(c3)C(C#N)CC4)n[nH]2)C1 (stereo partly drawn)
Result: > 7.30

Ask: Returns the measured pIC50 for the input molecule. Input: CC(C)NC(=O)O[C@@H]1CC[C@H](c2cc(Nc3cccc4c3CS(=O)(=O)N4)n[nH]2)C1
Result: 6.30 to 7.30

Ask: Returns the measured pIC50 for the input molecule. Input: CC(C)NC(=O)O[C@@H]1CC[C@H](c2[nH]nc(Nc3ccc4c(c3)CNS4(=O)=O)c2F)C1
Result: > 7.30

Ask: Returns the measured pIC50 for the input molecule. Input: CC(C)NC(=O)O[C@@H]1CC[C@H](c2cc(Nc3nccc4c3CCS4(=O)=O)n[nH]2)C1
Result: > 7.30

Ask: Returns the measured pIC50 for the input molecule. Input: CC(C)NC(=O)O[C@@H]1CC[C@H](c2cc(Nc3ccc4c(c3)C(=O)NS4(=O)=O)[nH]n2)C1
Result: > 7.30

Ask: Returns the measured pIC50 for the input molecule. Input: CC(C)NC(=O)O[C@@H]1CC[C@H](c2cc(Nc3ccc4c(c3)CS(=O)(=O)N4)n[nH]2)C1
Result: > 7.30

Ask: Returns the measured pIC50 for the input molecule. Input: O=C(NC1CC1)O[C@@H]1CC[C@H](c2cc(Nc3nccc4c3CCS4(=O)=O)n[nH]2)C1
Result: > 7.30

Ask: Returns the measured pIC50 for the input molecule. Input: CC(C)NC(=O)O[C@@H]1CC[C@H](c2cc(Nc3ccc4c(c3)N(C)CNS4(=O)=O)n[nH]2)C1
Result: > 7.30

Ask: Returns the measured pIC50 for the input molecule. Input: CC(C)NC(=O)O[C@@H]1CC[C@H](c2cc(Nc3ccc4c(c3)OCCNS4(=O)=O)n[nH]2)C1
Result: > 7.30

Ask: Returns the measured pIC50 for the input molecule. Input: CC(C)NC(=O)O[C@H]1CC[C@@H](c2cc(Nc3ccc4c(c3)CS(=O)(=O)C4)n[nH]2)CC1
Result: > 7.30

Ask: Returns the measured pIC50 for the input molecule. Input: CC(C)NC(=O)O[C@@H]1CC[C@H](c2cc(Nc3c(F)ccc4c3CCS4(=O)=O)n[nH]2)C1
Result: 6.30 to 7.30

Ask: Returns the measured pIC50 for the input molecule. Input: CC(C)NC(=O)O[C@@H]1CC[C@H](c2cc(Nc3ccc4c(c3)C(=O)NC4)n[nH]2)C1
Result: > 7.30

Ask: Returns the measured pIC50 for the input molecule. Input: Cc1c([C@@H]2CC[C@H](OC(=O)NC(C)C)C2)n[nH]c1Nc1ccc2c(c1)CCS2(=O)=O (racemic)
Result: 6.00 to 6.30
